Can you tell me pEC50 for the items I'm about to list?
Target: T1, recombinant alipidated human ApoE4 (human, UniProt P02649 19-317)
T1 construct: mature; full length recombinant protein made in E. coli or bought; biotinylated for SPR; position 112 is counted on the mature protein, not on the precursor entry; also called recApoE; non-lipidated ApoE4
T1 sequence (P02649 19-317 C130R): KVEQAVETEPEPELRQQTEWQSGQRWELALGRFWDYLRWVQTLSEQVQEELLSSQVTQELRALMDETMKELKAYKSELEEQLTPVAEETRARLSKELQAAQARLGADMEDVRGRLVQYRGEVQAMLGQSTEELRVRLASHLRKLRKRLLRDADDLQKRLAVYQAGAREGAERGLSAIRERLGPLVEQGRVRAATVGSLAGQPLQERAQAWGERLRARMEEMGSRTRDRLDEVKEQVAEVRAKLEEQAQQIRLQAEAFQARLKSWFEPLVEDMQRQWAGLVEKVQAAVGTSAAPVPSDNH
Assay overview: direct ELISA on coated recombinant alipidated ApoE (0.5 ug/ml)
Experimental: ELISA dose response curves were generated for several anti-ApoE antibodies. Briefly, plates were coated overnight with full length recombinant alipidated ApoE2, ApoE3, or ApoE4 (0.5 μg/ml). The following days, plates were washed, blocked and then incubated with an anti-ApoE antibody. A goat, anti-mouse IgG-HRP antibody was used for secondary detection. Recombinant alipidated ApoE was either expressed solubly in E. coli and then purified, or purchased from a commercial supplier.
Entry type: numeric. Quantity: pEC50, the -log10 of concentration in molar units.

Value lookup for pEC50; key = HJ1531 (antibody, V domains shown, murine monoclonal antibody from hybridoma) VH: EVQFVESGGGLVQPKGSLKLSCAASGFSFNIYAMNWVRQAPGKGLEWVARIRSKSNDYATFYADSVKDRFTISRDDSESMLYLQMNNLKIEDTAMYYCVSPYDGALAYWGQGTSVTVSS VL: DIQMNQSPSSLFASLGDTITITCHASQNINVWLSWYQQKPGNIPKLLIYKASNLHTGVSSRFSGSGSGTDFTLTINNLQPEDIATYYCQQGQSYPLTFGAGTKLELKR
10.40

pEC50 lookup needed for HJ158 (antibody, V domains shown, murine monoclonal antibody from hybridoma) VH: EVQLMESGGDLVKPGGSLELSCTVSGFTFNNYAMSWIRQTPEKRLEWVATISDGGTNTYFPDNVKGRFTISRDNAKSNLYLQMSHLQSEDTAMYYCAREGRGTWFAYWGQGTLVTVSA VL: DVVMTQTPLSLPVSLGDQASISCRSSQSLVHINGNTYLHWSLQKPGQSPKLLIYKVSNRFSGVPDRFSGSGSGTDFTLKISRVEAEDLGIYFCSQNTHLPLTFGAGTKLELKR , thanks.
10.22

Request the reported pEC50 associated with HJ154 (antibody, V domains shown, murine monoclonal antibody from hybridoma; also called HJ154B (biotinylated)) VH: QVQLQQPGTEFVMSGASVMLSCKASGYIFTNYWLHWVKQRPGHGLEWIGEIDPSDSYSICNDNFKGKSTLTVDKSSSTAYMQLSSLTSEDSAVYYCAGSLGRVGLAYWGQGTLVTVST VL: QIVLTQSPAIMSASPGEKVTMSCSASSSVSNMYWYQQKPGSSPKSWIYRTSNLASGVPARFSGSGSGTSYSLTISNMEAEDAATYYCQHYQNYPLTFGAGTKLELKR
9.59
